This collection of values is drawn from the supplement of paper PMC10567573.

B1: PSD2 (parent)
chain: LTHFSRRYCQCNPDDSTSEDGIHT

- Variants of: B1
- Measurement Description: protein stability index of a GFP-peptide fusion (GPS, HEK-293T) (PSI 1-6); higher = more stable;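 note: lentivirally expressed fusions sorted by FACS into six bins by GFP to DsRed ratio, PSI derived from sequencing read proportions per bin multiplied by bin number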
- Measurement Conditions: c terminus: a fixed tail appended
Measured Property: protein stability index

Mutation Notation | Result Number
D15T | 2.79
T24C | 2.68
Q10W | 2.51
E19C | 3.04
S16N | 3.06
D14P | 2.06
L1T | 3.75
L1Q | 3.53
D15M | 3.21
F4E | 4.55
D15L | 2.26
R6E | 4.83
R6G | 4.2
D14Y | 1.99
D14G | 2.35
E19N | 2.84
D15I | 2.1
P13M | 3.2
D15Q | 2.35
R6S | 4.02
P13L | 2.71
D15A | 2.69
